- Experimental Protocol: method code SF, from Hansch, C. & Leo, A. (1987). Log P database [Dataset]. Pomona College Medicinal Chemistry Project.
- Condition Description: pH 8.7
Readout Kind: logD
The response must contain the number and no unit.

Request: Which value of logD has been reported for CN1CCC(CN2c3ccccc3Sc3ccccc32)C1 (stereo unspecified) in the records?
Response: 3.87

----------
- Experimental Protocol: method code SF, from Hansch, C. & Leo, A. (1987). Log P database [Dataset]. Pomona College Medicinal Chemistry Project.
Flag rule - logP less than 1 flags Criterion met; the remaining entries get Criterion not met.

As a guide, the following entries are already answered.
>>> classification("O=c1cn[nH]c2ccccc12")
"Criterion met"
>>> classification("OC(CF)CF")
"Criterion met"
>>> classification("CC1(C)OC2CC3C4CC(F)C5=CC(=O)C(Cl)=CC5(C)C4(F)C(O)CC3(C)C2(C(=O)CO)O1 (stereo not drawn)")
"Criterion not met"
>>> classification("N#CCc1cccs1")
"Criterion not met"
>>> classification("COc1ccc(OC(=O)CNC(=O)c2ccccc2)cc1")
"Criterion not met"
>>> classification("C[C@]12CCC(=O)C=C1CC[C@@H]1[C@@H]2[C@@H](O)C[C@@]2(C)[C@H]1CC[C@]2(O)C(=O)CO")
"Criterion not met"
>>> classification("c1ccc(-c2nc3ccccc3s2)cc1")
"Criterion not met"
>>> classification("Cc1nnc2n1-c1sc(Br)cc1C(c1ccccc1Cl)=NC2")
"Criterion not met"

Now, please, on to the next compound.
Request: Dear reviewer, please state whether O=C(O)CNc1ccccc1 has logP strictly beneath 1.
Response: Criterion met

----------
- Experimental Protocol: method code SF, from Hansch, C. & Leo, A. (1987). Log P database [Dataset]. Pomona College Medicinal Chemistry Project.
Readout Kind: logP
Please give only the number in your answer, with no unit.

>>> assay_value("NC(=O)Cc1ccsc1")
0.31
>>> assay_value("CCOP(=O)(N1CC1(C)C)N1CC1(C)C (centres undefined)")
1.02

Request: What value of logP has been recorded for this entry: NNC(=O)c1ccccc1
Response: 0.21

Request: Any idea what logP was measured for O=CNc1ccccc1 ?
Response: 1.2

----------
- Experimental Protocol: method code SF, from Hansch, C. & Leo, A. (1987). Log P database [Dataset]. Pomona College Medicinal Chemistry Project.
Readout Kind: logP
Give the figure by itself; no unit, no explanation.

Examples with answers:
>>> assay_value("CN(C)/N=N/c1ccccc1C(=O)NNC(=O)CC#N")
1.44
>>> assay_value("CC(=O)NCc1ccccc1")
0.95
>>> assay_value("N#CC(Cl)(Cl)Cl")
2.09

Request: Fill blank: measured logP of the compound Cc1ccc2[nH]c(CCCCc3nc4cc(C)ccc4[nH]3)nc2c1 is ____.
Response: 1.64

Request: # logP lookup, item COC(=O)c1ccccc1C
Response: 2.75

----------
Measured logD accompanies every entry in the list below.
- Experimental Protocol: method code SF, from Hansch, C. & Leo, A. (1987). Log P database [Dataset]. Pomona College Medicinal Chemistry Project.
- Condition Description: pH 0.7
Lab note: jot the number down without any unit.

>>> assay_value("O=C(O)c1cc(=O)c2ccccc2o1")
1.63

Here is another molecule to look at.
Request: Return reported logD; argument: O=C1CC(C(=O)O)Oc2ccccc21 (configuration not stated)
Response: 1.26
